experiment: Aqueous solubility of the compound; type: physicochemical; conditions: buffer
quantity.name: solubility (mg/mL)

A: Nc1ccc(C(=O)[O-])c(O[C@@H]2O[C@H](CO)[C@@H](O)[C@H](O)[C@H]2O)c1.[Na+]
B: Nc1ccc(C(=O)O)c(O)c1
Which of the two items, A and B , has the greater recorded solubility? Please reply using the label of the selected record.
A

###

assay: Partition coefficient, log P of the compound at pH 7.4 by shake flask method; assay type: physicochemical; conditions: octanol/water
quantity.name: logD

1: Nc1ccc(C(=O)O)c(O)c1
2: Nc1ccc(C(=O)[O-])c(O[C@@H]2O[C@H](CO)[C@@H](O)[C@H](O)[C@H]2O)c1.[Na+]
When their logD values are compared, which is larger, 1 or 2 ? Bench note: the answer is the label of the chosen record.
1
(1: 0.901, 2: -0.44)
